- Assay Overview: hit retest on RPL19A-GFP reporter strain – cell-based, S. cerevisiae, flow cytometry, cherry picks, mother/daughter gates, confirmation (AID 2270)
- Experimental Setup: 3 h, measured here: daughter cell gate, at 10 µM, stronger effect = lower value, 100 = same GFP as DMSO wells
As shown below, each of these compounds has a reported GFP response vs DMSO value.
Number only, in %; omit the unit.

Compound	GFP response vs DMSO, %
C[C@]12CCC(=O)C=C1[C@H](O)C[C@@H]1[C@@H]2[C@@H](O)C[C@@]2(C)[C@H]1CC[C@]2(O)C(=O)CO	99.1
OC(CCN1CCCCC1)(c1ccccc1)c1ccccc1	99
CC(NCCc1ccc(O)cc1)C(O)c1ccc(O)cc1 (stereo unspecified)	91.6
COCCN1C(=O)/C(=C/c2ccc(N3CCCC3)cc2C)SC1=S	99.1

# input Consider the compound shown here: c1cnc2c(c1)ccc1cccnc12 What is its recorded GFP response vs DMSO?
# output 100

# input Also, Oc1ccc2ccccc2c1/C=N/Nc1nnc(-c2ncc[nH]2)c2ccccc12 please.
# output 91.9

# input Queued: O=[N+]([O-])c1ccc(O)c2ncccc12
# output 99.8

# input What about O=C1c2ccccc2-c2onc3ccc(Oc4ccccc4)c1c23 ?
# output 86.6

----------
Catalogue of GFP response, % of DMSO values
- Assay Overview: yeast AGP1-GFP level changes, GLN3 branch – cell-based, multiplex flow cytometry, S. cerevisiae, primary screen (AID 1887);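 further: AGP1-GFP fusion strain of S. cerevisiae within a five-strain barcoded multiplex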
- Experimental Setup: 3 h, at 10 µM, stronger effect = higher value
Inconclusive results are not listed.
# value in %; strip the unit string

Solved entries (count: 5):
Molecule	GFP response, % of DMSO, %
COc1cc(CO)ccc1OCc1nnnn1-c1ccc(C)cc1	101
Nc1ccc2cn[nH]c2c1	102
C=CCNc1nc2c(c(=O)n(C)c(=O)n2C)n1CC(=C)C	103
CCOc1ccc2ccccc2c1CNc1nnnn1C	96.2
Cc1cn([C@H]2C=C[C@@H](CO)O2)c(=O)[nH]c1=O	93.5

# input Find the recorded GFP response, % of DMSO belonging to NC(N)=N/N=C/c1cccc(Cl)c1Cl and report it.
# output 98.8

# input Input CCN(CC)CCNC(=O)c1cc(Cl)c(N)cc1OC
# output 99.7

----------
- Target: Cell division control protein 42 homolog (Homo sapiens) (UniProt P60953)
- Sequence (P60953 whole entry, looked up): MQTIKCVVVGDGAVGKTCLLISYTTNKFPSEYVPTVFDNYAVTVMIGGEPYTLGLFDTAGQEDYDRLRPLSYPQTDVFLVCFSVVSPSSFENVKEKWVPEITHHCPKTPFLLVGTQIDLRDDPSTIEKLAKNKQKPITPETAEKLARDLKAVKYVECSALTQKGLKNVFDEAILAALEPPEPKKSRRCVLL
- Assay Overview: inhibition of fluorescent GTP binding to wildtype Cdc42 – biochemical, multiplex bead flow cytometry, Bodipy-FL-GTP, dose response (AID 1334)
- Experimental Setup: bead-based flow cytometry, Bodipy-FL-GTP binding to GST-Cdc42; at 100 µM (top of the series) unless noted
Potency and affinity values are given separately.
Hi! Just check whether fluorescence, percent of control (lower = inhibition) is below 50%. Below gives Criterion met, equal or above gives Criterion not met.

Record excerpt, results attached:
Cpd Smiles	Cat
O=C(Nc1nccs1)c1ccc(-c2cccc([N+](=O)[O-])c2)o1	Criterion met
COc1ccccc1CNCc1sc(C(=O)O)cc1C	Criterion not met
Cc1ccc2cc3cc(C(=O)N4CCN(Cc5ccccc5)CC4)sc3nc2c1	Criterion not met
Cc1nn2c(-c3cccc(NC(=O)c4ccco4)c3)nnc2c2ccccc12	Criterion met

Now, please, on to the next compound.
# input Below 50% on fluorescence, percent of control (lower = inhibition)? Entry COc1cccc(OCc2ccccc2Br)c1C(=O)O
# output Criterion not met
